For each entry below, report its MFI value.
Biological target: T1, human TMEM106B (human, UniProt Q9NUM4 2-274)
T1 construct: Full-length, on transiently transfected HEK293 cells, or natively expressed on HeLa, U251 and A549 cells; also called huTMEM106B; huTMEM
Experiment: FACS A549, 10 ug/ml
Hey, just send me the number, nothing else.

Entry anti-TMEM106B antibody TM-7 (antibody, V domains shown) VH: EVQLQQSGPVLVKPGPPVKISCKASGFTFTDYYIHWVKLSHGKSLEWIGLVYPYNGDTDYNQKFKGKATLTVDTSSSTAYMELNSLTSEDSAVYYCARTYYANSPDYWGQGTTVTVSS VL: DIVMTQSPSSLSVSAGEKVTMSCKSSQSLLNSGNQRNYLAWYQQKPGQPPKLLIYGASTRESGVPDRFTGSGSGTDFTLTISNVQAEDLAVYYCQNDHSYPLTFGAGTKLELK has what MFI?
1810

Look at this binder and give its reported MFI. anti-TMEM106B antibody TM-15 (antibody, V domains shown, mouse IgG from hybridoma) VH: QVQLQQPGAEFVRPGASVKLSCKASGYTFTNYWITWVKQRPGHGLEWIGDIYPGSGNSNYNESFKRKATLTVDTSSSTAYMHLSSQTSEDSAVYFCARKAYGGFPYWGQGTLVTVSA VL: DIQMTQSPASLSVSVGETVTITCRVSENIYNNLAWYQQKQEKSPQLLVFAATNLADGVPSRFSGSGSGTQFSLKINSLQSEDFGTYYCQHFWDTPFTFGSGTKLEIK
1980
